method.description: Cmax in Sprague-Dawley rat at 0.1 mg/kg, po qd administered via gavage measured on day 11 by LC-MS/MS analysis
Assay type: ADME, organism-based
Set-up: dose 0.1 mg/kg, route oral
condition.summary: in vivo
quantity: Cmax (nM)
Use nM as the unit, but write only the number.

Notebook: O=C(O)c1cc(F)c2nc(N3C4CCC3CC(OCc3c(-c5ccccc5OC(F)(F)F)noc3C3CC3)C4)sc2c1 (stereo unspecified) , Cmax read as 7.1

---

method.description: Drug uptake in Sprague-Dawley rat liver at 3 mg/kg, po qd administered via gavage measured 7 hrs post last dose on day 14 by LC-MS/MS analysis
Type: ADME, organism-based
condition.summary: read-out: Drug uptake
quantity: concentration at 7 h (nM)
Use nM as the unit, but write only the number.

Notebook: O=C(O)c1cc(F)c2nc(N3C4CCC3CC(OCc3c(-c5ccccc5OC(F)(F)F)noc3C3CC3)C4)sc2c1 (stereo unspecified) , concentration at 7 h read as 640
